All values here come from patent US20210388087A1.

Biological target: T1, Human CD3eg linker (human)
T1 construct: Single chain: epsilon and gamma subunits of human CD3 joined by a 29-mer linker, Flag-tag at the C-terminus; also called recombinant human CD3
T1 chain: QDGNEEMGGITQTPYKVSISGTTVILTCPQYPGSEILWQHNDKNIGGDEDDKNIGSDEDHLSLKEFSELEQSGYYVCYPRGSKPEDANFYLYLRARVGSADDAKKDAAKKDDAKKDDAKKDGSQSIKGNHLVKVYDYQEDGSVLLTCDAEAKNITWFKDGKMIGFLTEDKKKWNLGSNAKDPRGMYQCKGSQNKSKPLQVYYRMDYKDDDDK
Experiment: Biacore SPR, vs template H183/L072
measured metric: fold change of affinity (fold)
Could you give me the number in fold? Just the number is fine.

[[record]]
binder = "H183/L072 VH Q50N (antibody, name in Kabat numbering, V domains shown) VH: QVQLVESGGGLVQPGRSLRLSCAASGFTFSNAWMHWVRQAPGKGLEWVANIKDKGNAYAAYYAPSVKGRFTISRDDSKNSIYLQMNSLKTEDTAVYYCHYVHYASASTVLPAFGVDAWGQGTTVTVSS VL: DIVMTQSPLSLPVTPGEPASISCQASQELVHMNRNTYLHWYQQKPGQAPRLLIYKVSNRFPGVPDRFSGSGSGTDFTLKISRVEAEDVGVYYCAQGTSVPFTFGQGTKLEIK"
measured_metric = "fold change of affinity"
unit_text = "fold"
experimental_result = 0


Read the next record carefully.
Qu. Please report the recorded fold change of affinity for H183/L072 VH N53S (antibody, name in Kabat numbering, V domains shown) VH: QVQLVESGGGLVQPGRSLRLSCAASGFTFSNAWMHWVRQAPGKGLEWVAQIKDKGSAYAAYYAPSVKGRFTISRDDSKNSIYLQMNSLKTEDTAVYYCHYVHYASASTVLPAFGVDAWGQGTTVTVSS VL: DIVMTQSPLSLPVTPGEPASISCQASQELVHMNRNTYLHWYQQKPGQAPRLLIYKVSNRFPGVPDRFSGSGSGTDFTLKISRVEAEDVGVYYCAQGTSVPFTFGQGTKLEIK .
Ans. 0.8
